Reported values of composite z-score for individual entries
System: Neuregulin-1 EGF-like domain
Assay: binders of neuregulin-1 EGF-like domain, primary screen, biochemical, small-molecule microarray, 635 nm fluorescence (AID 1081);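 also: binding of the protein to compounds printed on small-molecule microarray slides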
Conditions: small-molecule microarray binding, higher = more signal

COMPOUND	MEASUREMENT LABEL	MEAS VALUE
COc1ccc(C(O)C2C=CC3C(=O)N(c4ccccc4)C(=O)C3N2Nc2ccccc2)cc1 (stereo not given)	composite z-score	1.31

Exercise: Return composite z-score (reported value) for this compound: C=CC1c2cc(O)c(OC)cc2CCN1Cc1ccc([N+](=O)[O-])o1 (stereo not given)
Key: 1.09

Exercise: Return composite z-score (reported value) for this compound: C=C(/C(=C/C[C@@H](OC(C)=O)c1ccc(OCCO)cc1)c1cc(C(=O)OC)ccc1OC)C(C)C
Key: 0.945

Exercise: Return composite z-score (reported value) for this compound: C=CCC(OC(C)=O)[C@@H]1[C@@H](N(Cc2cccc3ccccc23)C(=O)c2cccc3ccccc23)c2cc(OCCCO)ccc2N1C(=O)c1ccc2ccccc2c1 (stereo not given in full)
Key: -0.313

Exercise: Return composite z-score (reported value) for this compound: C=C(/C(=C/C[C@H](OC(=O)c1ccncc1)c1cccc(OCCO)c1)c1cnc2ccccc2c1)C(C)C
Key: 0.884
